As shown below, each of these binders has a reported Top (MFI) value.
# Study System: cynomolgus LIV-1 (cynomolgus, UniProt A0A2K5WH46 30-741)
# Sequence (A0A2K5WH46 entry or part of it): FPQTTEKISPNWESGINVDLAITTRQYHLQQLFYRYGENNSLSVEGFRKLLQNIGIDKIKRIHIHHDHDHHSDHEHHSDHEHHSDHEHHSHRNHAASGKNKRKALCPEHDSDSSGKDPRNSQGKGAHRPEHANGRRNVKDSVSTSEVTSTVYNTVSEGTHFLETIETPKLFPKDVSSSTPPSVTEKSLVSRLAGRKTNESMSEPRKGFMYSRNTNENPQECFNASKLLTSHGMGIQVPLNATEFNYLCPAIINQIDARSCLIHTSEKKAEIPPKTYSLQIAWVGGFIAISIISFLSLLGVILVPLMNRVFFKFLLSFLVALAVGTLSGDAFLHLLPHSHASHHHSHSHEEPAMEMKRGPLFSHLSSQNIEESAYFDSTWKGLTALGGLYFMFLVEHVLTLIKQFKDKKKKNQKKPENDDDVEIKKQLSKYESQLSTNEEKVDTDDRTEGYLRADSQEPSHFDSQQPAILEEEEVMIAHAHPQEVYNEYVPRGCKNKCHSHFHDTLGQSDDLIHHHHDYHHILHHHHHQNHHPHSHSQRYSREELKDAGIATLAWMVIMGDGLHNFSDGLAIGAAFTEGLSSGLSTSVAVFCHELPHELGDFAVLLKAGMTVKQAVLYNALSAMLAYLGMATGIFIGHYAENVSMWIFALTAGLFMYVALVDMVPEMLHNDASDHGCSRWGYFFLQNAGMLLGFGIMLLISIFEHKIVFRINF
# Assay Method Text: FACS, HEK293/Cyno_LIV-1 cells
Returns: string containing the number followed by the unit.

1. 135C6E7 (antibody, V domains shown, Tested as chimeric antibody) VH: EVQLVESGGGLVQPKGSLKLSCAASGFTFNTYAMNWVRQAPGKGLEWVARIRSKYNSYATYYADSVKDRFTISRDDSQSILYLQMNNLKTEDTAMYYCVRHEDYDGGFAYWGQGTLVTVSA VL: DIVMSQSPSSLAVSVGEKVTMSCKSSQSLFKSRTRKNYLAWYQQKPGQSPKLLIYWASTRESGVPDRFTGSGSGTDFTLTISSVQAEDLAVYYCKESYNLMYTFGGGTKLEIK :: 6290 MFI

We now examine a further binder.
Can you look up the measured Top (MFI) of 112H11C12 (antibody, V domains shown, Tested as chimeric antibody; also called 112H1C12) VH: QVQLQQPGAELVRPGASVKLSCKASGYTFTSYWMNWVKQRPGQGLKWIGMIDPSNSKTHYNQMFKDKATLTVDKSSNTAYMQLSSLTSEDSAVYYCARTSTTMATFAYWGQGTLVSVSA VL: DVLMTQTPLSLPVSLGDQASISCRSSQSIVHSNGNTYLEWYLQKPGQSPKLLIYKVSNRFSGVPDRFSGSGSGTDFTLKISRVEAEDLGVYYCFQASHFPLTFGAGTELDLN for me?
2930 MFI

Provenance of the data: patent US20240325555A1
